The origin of these recorded values is ChEMBL document CHEMBL5370659.

- measurementNotes: Metabolic stability in rat hepatocytes assessed as half life
- Format: ADME, cell-based, Hepatocyte
quantityKind: half-life (min)

(I) CCn1c(=O)[nH]c(=O)c2c1nc(Cc1cn3ccccc3n1)n2Cc1ccc(-c2ccn(C)n2)cc1
(II) CCn1c(=O)[nH]c(=O)c2c1nc(Cc1cn3cc(Cl)sc3n1)n2Cc1ccc(-c2ccn(C)n2)cc1
(III) CCn1c(=O)[nH]c(=O)c2c1nc(Cc1cn3cc(C)sc3n1)n2Cc1ccccc1
Request: Form: Sort by [half-life] Order [ ascending ] The response must list the labels following the requested ordering.
Result: II, III, I
(II: 8 min, III: 13 min, I: 19 min)

---

- measurementNotes: AUC (0 to infinitive) in Sprague-Dawley rat at 50 mg/kg, po measured upto 1440 mins by LC-MS/MS analysis
- Assay type: ADME, organism-based
- Design: dose 50 mg/kg, time < 1440 min, route po
- studyConditions: in vivo
quantityKind: AUC(0-inf) (ng·h/mL)
Reply numerically in ng·h/mL, unit not repeated.

Request: Look at this compound and give its reported AUC(0-inf). `CCn1c(=O)[nH]c(=O)c2c1nc(Cc1cn3cc(C)sc3n1)n2CC1COC1`
Result: 8220

---

- measurementNotes: Initial drug concentration in Sprague-Dawley rat at 10 mg/kg, iv measured upto 1440 mins by LC-MS/MS analysis
- Type: ADME, organism-based
- studyConditions: in vivo
quantityKind: C0 at 24 h (ng/mL)
Express it in ng/mL; write the number only.

Request: So what's the measured C0 at 24 h for this one? `CCn1c(=O)[nH]c(=O)c2c1nc(Cc1cn3cc(C)sc3n1)n2CC1COC1`
Result: 16300

---

- measurementNotes: Drug uptake in CD-1 (ICR) mouse lung at 50 mg/kg measured 2 hrs by LC-MS/MS analysis
- Assay type: ADME, organism-based
- studyConditions: read-out: Drug uptake
quantityKind: concentration at 2 h (ng/g)
Give a bare numeral; the unit ng/g is implied.

Request: // concentration at 2 h lookup, key: `CCn1c(=O)[nH]c(=O)c2c1nc(Cc1cn3cc(C)sc3n1)n2CC1COC1`
Result: 168

---

- measurementNotes: Permeability across apical to basal side in MDCK-MDR1 cells at pH 6.5/7.4 measured at 5 uM by LC-MS/MS analysis
- Assay type: ADME, cell-based, Canis lupus familiaris
- studyConditions: dog, MDCK-MDR1, pH 6.5
quantityKind: Papp A→B at 5 µM

A selection of reference data follows.
{"columns": ["structureSmilesString", "Papp A→B at 5 µM"],
 "data": [
  ["CCn1c(=O)[nH]c(=O)c2c1nc(Cc1cn3cc(Cl)sc3n1)n2CC1COC1", "< 0.64 ×10⁻⁶ cm/s"],
  ["CCn1c(=O)[nH]c(=O)c2c1nc(Cc1cn3cc(C)sc3n1)n2CC1CC1", "0.45 ×10⁻⁶ cm/s"]
]}

Request: For `CCn1c(=O)[nH]c(=O)c2c1nc(Cc1cn3cc(C)sc3n1)n2CC1COC1` , what is its reported Papp A→B at 5 µM?
Result: < 0.54 ×10⁻⁶ cm/s

---

- measurementNotes: MRT (0 to last) in CD-1 (ICR) mouse at 50 mg/kg, po measured upto 1440 mins by LC-MS/MS analysis
- Format: ADME, organism-based
- studyConditions: in vivo
quantityKind: MRT last at 24 h (h)
Write down the numeric answer in h and omit the unit.

Request: Consider the molecule shown here: `CCn1c(=O)[nH]c(=O)c2c1nc(Cc1cn3cc(C)sc3n1)n2CC1COC1` What is its recorded MRT last at 24 h?
Result: 1.58
